All values here come from patent US20060193821.

Parameter: log10 Kd. Scope: all listed entries.
Target: T1, IL-12 (mouse, p35/p40 heterodimer) (Mus musculus, UniProt P43431;P43432 SEQ:23-215,SEQ:23-335)
T1 sequence 1: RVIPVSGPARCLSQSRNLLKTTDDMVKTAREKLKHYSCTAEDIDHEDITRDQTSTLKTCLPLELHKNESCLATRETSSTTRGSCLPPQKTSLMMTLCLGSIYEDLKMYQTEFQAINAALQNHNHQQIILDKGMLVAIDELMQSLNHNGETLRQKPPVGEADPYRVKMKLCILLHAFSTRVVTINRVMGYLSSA
T1 sequence 2: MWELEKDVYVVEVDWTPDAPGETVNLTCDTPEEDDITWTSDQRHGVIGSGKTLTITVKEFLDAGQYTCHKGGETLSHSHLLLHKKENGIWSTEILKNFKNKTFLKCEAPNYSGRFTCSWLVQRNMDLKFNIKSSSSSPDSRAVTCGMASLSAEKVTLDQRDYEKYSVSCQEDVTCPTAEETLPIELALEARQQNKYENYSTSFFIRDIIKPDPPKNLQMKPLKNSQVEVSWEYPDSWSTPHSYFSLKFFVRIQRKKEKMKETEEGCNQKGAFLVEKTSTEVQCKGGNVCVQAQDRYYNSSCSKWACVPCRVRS
Assay: filter; 1X PBS, 0.1 mg/mL BSA, 30 min RT
Settings: label: 32P
property: log10 Kd (log10 of the value in nM)

INSERT INTO measurements (binder, property, test_result) VALUES
  ('ARC1631 (ssRNA, 2''-F all C and U (rRfY)) RNA: GGAGCGCACUCAGCCACGCCUACAAUUCACUGUGAUAUAUCGAAUUAUAGCCCUGGUUUCGACCUCUCUGCUAGC', 'log10 Kd', 1.86),
  ('ARC1632 (ssRNA, 2''-F all C and U (rRfY)) RNA: GGAGCGCACUCAGCCACCGGCUUAAUAUCCAAUAGGAACGUUCGCUCUGAGCAGGCGUUUCGACCUCUCUGCUAGC', 'log10 Kd', 1.20),
  ('ARC1628 (ssRNA, 2''-F all C and U (rRfY)) RNA: GGAGCGCACUCAGCCACAGGUGGCUUAAUACUGUAAAGACGUGCGCGCAGAGGGAUUUUCGACCUCUCUGCUAGC', 'log10 Kd', 0.78),
  ('ARC1629 (ssRNA, 2''-F all C and U (rRfY)) RNA: GGAGCGCACUCAGCCACCGUAAUUCACAAGGUCCCUGAGUGCAGGGUUGUAUGUUUGUUUCGACCUCUCUGCUAGC', 'log10 Kd', 2.01),
  ('ARC1633 (ssRNA, 2''-F all C and U (rRfY)) RNA: GGAGCGCACUCAGCCACAGCUCGGUGGCUUAAUAUCUAUGUGAACGUGCGCAACAGCUUUCGACCUCUCUGCUAGC', 'log10 Kd', 1.64),
  ('ARC1630 (ssRNA, 2''-F all C and U (rRfY)) RNA: GGAGCGCACUCAGCCACUCUACUCGAUAUAGUUUAUCGAGCCGGUGGUAGAUUAUGAUUUCGACCUCUCUGCUAGC', 'log10 Kd', 1.26),
  ('ARC1634 (ssRNA, 2''-F all C and U (rRfY)) RNA: GGAGCGCACUCAGCCACCUUGGGCUUAAUACCUAUCGGAUGUGCGCCUAGCACGGAAUUUCGACCUCUCUGCUAGC', 'log10 Kd', 1.46);
